Provide the reported pEC50 of each item.
Tested on: UISO
experimental_details: Cell Titer Glo dose-response study
Type: cell-based, human
test_settings: Homo sapiens; UISO (MCV-negative); Cell Titer Glo; read-out: EC50 concentrations for MCC cell lines, UISO
Experimental: […] Compounds that met the selection criteria <10% cell survival were purchased or obtained in bulk from NCI/NIH Developmental Therapeutics Program. […] Cell viability was then measured using Cell Titer Glo (Promega) kit following manufacturer's instructions as described previously. […] EC50 doses for the drugs were calculated using a four parameter logistic equation (GraphPad Prism).
Conceptually, pEC50 converts a concentration in mol/L into minus its log10.

Qu. What measured pEC50 goes with CC[C@@]1(O)C(=O)OCc2c1cc1n(c2=O)Cc2cc3c(CN(C)C)c(O)ccc3nc2-1 [Topotecan] ?
Ans. 6.77

Qu. Consider the compound shown here: Cc1c2ccncc2c(C)c2c1[nH]c1ccccc12 [Ellipticine] What is its recorded pEC50?
Ans. 5.96

Qu. Which pEC50 value belongs to CCCCC(=O)OCC(=O)[C@]1(O)Cc2c(O)c3c(c(O)c2[C@@H](O[C@H]2C[C@H](NC(=O)C(F)(F)F)[C@H](O)[C@H](C)O2)C1)C(=O)c1c(OC)cccc1C3=O [Valrubicin] ?
Ans. 5.40

----------
Tested on: UISO
experimental_details: Cell Titer Glo dose-response study
Type: cell-based, human
test_settings: Homo sapiens; UISO (MCV-negative); Cell Titer Glo; read-out: EC50 concentrations for MCC cell lines, UISO
Procedure: […] Compounds that met the selection criteria <10% cell survival were purchased or obtained in bulk from NCI/NIH Developmental Therapeutics Program. […] Cell viability was then measured using Cell Titer Glo (Promega) kit following manufacturer's instructions as described previously. […] EC50 doses for the drugs were calculated using a four parameter logistic equation (GraphPad Prism).
Counter-ions that a name gives are not always drawn.
# true = EC50 below 2000 nM (exclusive); false = EC50 at/above 2000 nM

Qu. Consider "COc1cccc2c1C(=O)c1c(O)c3c(c(O)c1C2=O)C[C@@](O)(C(=O)CO)C[C@@H]3O[C@H]1C[C@H](N)[C@H](O)[C@H](C)O1" . Does its EC50 lie strictly below 2000 nM?
Ans. true

Qu. Hi there! Is EC50 for COc1ccc2c(c[n+](C)c3c4cc5c(cc4ccc23)OCO5)c1OC [Chelerythrine chloride] below 2000 nM, do you know?
Ans. false

Qu. Bench note: check whether COc1cc([C@@H]2c3cc4c(cc3[C@@H](O[C@@H]3O[C@@H]5CO[C@@H](c6cccs6)O[C@H]5[C@H](O)[C@H]3O)[C@H]3COC(=O)[C@H]23)OCO4)cc(OC)c1O [Teniposide] shows EC50 below 2000 nM
Ans. false

Qu. EC50 under 2000 nM? Item: "O=C1c2c(O)ccc(O)c2C(=O)c2c(NCCNCCO)ccc(NCCNCCO)c21"
Ans. true

Qu. Take the molecule CCN(CC)C(=S)SSC(=S)N(CC)CC [Tetraethylthiuram disulfide] and say whether its EC50 is less than 2000 nM.
Ans. false

Qu. hey, is EC50 for COc1cc(NS(C)(=O)=O)ccc1Nc1c2ccccc2nc2ccccc12 [Amsacrine hydrochloride] lower than 2000 nM or not?
Ans. false

----------
Test system: MKL-2
experimental_details: Cell Titer Glo dose-response study
Assay type: cell-based, human
test_settings: Homo sapiens; MKL-2 (MCV-positive); Cell Titer Glo; read-out: EC50 concentrations for MCC cell lines, MKL-2
Counter-ions that a name gives are not always drawn.
observable: pEC50
Notebook: values listed as pEC50 are -log10 of the concentration (mol/L).

Qu. Returns the measured pEC50 for the input compound. Input: COc1ccc2c(c[n+](C)c3c4cc5c(cc4ccc23)OCO5)c1OC [Chelerythrine chloride]
Ans. 6.19

Qu. # lookup: pEC50 of "Cc1c2ccncc2c(C)c2c1[nH]c1ccccc12"
Ans. 5.19

Qu. I am curious: what pEC50 value has been reported for "CCCCC(=O)OCC(=O)[C@]1(O)Cc2c(O)c3c(c(O)c2[C@@H](O[C@H]2C[C@H](NC(=O)C(F)(F)F)[C@H](O)[C@H](C)O2)C1)C(=O)c1c(OC)cccc1C3=O" ?
Ans. 5.55

Qu. Report pEC50 for "CC[C@@]1(O)C(=O)OCc2c1cc1n(c2=O)Cc2cc3c(CN(C)C)c(O)ccc3nc2-1" please.
Ans. 6.37

Qu. Entry CCN(CC)C(=S)SSC(=S)N(CC)CC [Tetraethylthiuram disulfide] : reported pEC50 = ?
Ans. 6.72

Qu. Please report the recorded pEC50 for COc1cc(NS(C)(=O)=O)ccc1Nc1c2ccccc2nc2ccccc12 [Amsacrine hydrochloride] .
Ans. 5.52

Qu. Query (compound): "O=C1c2c(O)ccc(O)c2C(=O)c2c(NCCNCCO)ccc(NCCNCCO)c21" ; field requested: pEC50
Ans. 5.89
